Listing: IC50, IGF1-stimulated IGFR phosphorylation, H292 cells, ELISA of selected binders
- TGT: IGF-IR on human tumour cells (H292, MCF-7, RH41) (human, UniProt P08069 31-1367)
- MEASUREMENT NOTES: cell-based or functional assay
Field: numeric (nM). Do not append units.

Below, 2 binders whose answers are already recorded.
• E5-GS10-I1 pegylated (designed binder, Cys of the C-terminal Cys tail conjugated to 40 kDa branched PEG) E/I tandem 10Fn3 chain: MGVSDVPRDLEVVAATPTSLLISWWAPVDRYQYYRITYGETGGNSPVQEFTVPRDVYTATISGLKPGVDYTITVYAVTDYKPHADGPHTYHESPISINYRTEIDKGSGSGSGSGSGSGSGSGSGSVSDVPRDLEVVAATPTSLLISWSARLKVARYYRITYGETGGNSPVQEFTVPKNVYTATISGLKPGVDYTITVYAVTRFRDYQPISINYRTEIDKPCQHHHHHH = 0.4
• E105-GS10-I1 pegylated (designed binder, chain 1 pos 221: Cys carrying a maleimide-linked 40 kDa branched PEG, written C, lower row of the two named E105-GS10-I1 pegylated) MGVSDVPRDLEVVAATPTSLLISWDAPTSRYQYYRITYGETGGNSPVQEFTVPGGLSTATISGLKPGVDYTITVYAVTDYKPHADGPHTYHESPISINYRTEIDKGSGSGSGSGSGSGSGSGSGSVSDVPRDLEVVAATPTSLLISWSARLKVARYYRITYGETGGNSPVQEFTVPKNVYTATISGLKPGVDYTITVYAVTRFRDYQPISINYRTEIDKPCQHHHHHH = 0.5

Now for the binder whose IC50, IGF1-stimulated IGFR phosphorylation, H292 cells, ELISA we want.
Input I1-GS10-E4 pegylated, His-tagged (designed binder, 40 kDa branched PEG on the Cys of the C-terminal Cys tail) MGVSDVPRDLEVVAATPTSLLISWSARLKVARYYRITYGETGGNSPVQEFTVPKNVYTATISGLKPGVDYTITVYAVTRFRDYQPISINYRTEIDKGSGSGSGSGSGSGSGSGSGSVSDVPRDLEVVAATPTSLLISWHERDGSRQYYRITYGETGGNSPVQEFTVPGGVRTATISGLKPGVDYTITVYAVTDYFNPTTHEYIYQTTPISINYRTEIDKPCQHHHHHH . Output IC50, IGF1-stimulated IGFR phosphorylation, H292 cells, ELISA: 0.2
